Values were extracted from patent US20100216724A1.

protocol.summary: Cytotoxicity (MTS cell viability) in the HIV-1 assay
run.conditions: human, CEM-SS cells
Where no end group is shown, it is not given here.
measure.name: viability at 10 micrograms per ml (%)
Answers are plain numbers, in %.

Qu. What value of viability at 10 micrograms per ml has been recorded for this entry: SRNRCNDQ-NH2
Ans. 100

* * *

protocol.summary: Cytotoxicity testing (CellTiter 96) in MRC-5 cells
Format: cell-based
run.conditions: human, MRC-5 cells (human embryonal lung fibroblasts), 6 days incubation, read-out: % Cell viability
Procedure: Ganciclovir was used as positive control. […] For cytotxicity testing, MRC-5 cells were seeded at 2,500 cells/well in 96 well plates using growth medium. […] The following day, peptide were added and tested in duplicates. After a 6 days incubation period, cell viability was measured using CellTiter 96 Solution (Promega). Plates were incubated for additional 4 hours at 37° C.
Where no end group is shown, it is not given here.
measure.name: viability at 144 h (%)
One number for each entry, in %.

Qu. What value of viability at 144 h has been recorded for this entry: SRNRCNDQ-NH2
Ans. 100
